Assay: Degradation half-time was evaluated
Assay type: ADME
Non-standard residues stand in square brackets, D forms with d. Residues, ends and D or L forms follow the SMILES beside them. Cha = N[C@@H](CC1CCCCC1)C(=O)O; NMeL = CN[C@@H](CC(C)C)C(=O)O; NMeA = CN[C@@H](C)C(=O)O
metric: half-life (min)

Examples with their reported half-life follow.
| compound | half-life (min) |
| --- | --- |
| CSCC[C@H](NC(=O)[C@H](C)NC(=O)[C@H](CCCN=C(N)N)NC(=O)[C@H](CC1CCCCC1)NC(C)=O)C(=O)N[C@@H](C)C(=O)N[C@@H](CO)C(=O)N(C)[C@@H](CC(C)C)C(N)=O | 4.6 |
| CSCC[C@H](NC(=O)[C@H](C)NC(=O)[C@H](CCCN=C(N)N)NC(=O)[C@H](CC1CCCCC1)NC(C)=O)C(=O)N(C)[C@@H](C)C(=O)N[C@@H](CO)C(=O)N[C@@H](CC(C)C)C(N)=O (Ac-[Cha]RAM[NMeA]SL-NH2) | 7.3 |
| CSCC[C@H](NC(=O)[C@H](C)NC(=O)[C@H](CCCN=C(N)N)NC(=O)[C@H](CC1CCCCC1)NC(C)=O)C(=O)N[C@@H](C)C(=O)N[C@@H](CO)C(=O)N[C@@H](CC(C)C)C(N)=O (Ac-[Cha]RAMASL-NH2) | 3 |

a = CSCC[C@H](NC(=O)[C@H](C)NC(=O)[C@H](CCCN=C(N)N)NC(=O)[C@H](CC1CCCCC1)NC(C)=O)C(=O)N(C)[C@@H](C)C(=O)N[C@@H](CO)C(=O)N(C)[C@@H](CC(C)C)C(N)=O (Ac-[Cha]RAM[NMeA]S[NMeL]-NH2)
b = CSCC[C@H](NC(=O)[C@H](C)N(C)C(=O)[C@H](CCCN=C(N)N)NC(=O)[C@H](CC1CCCCC1)NC(C)=O)C(=O)N(C)[C@@H](C)C(=O)N[C@@H](CO)C(=O)N(C)[C@@H](CC(C)C)C(N)=O (Ac-[Cha]R[NMeA]M[NMeA]S[NMeL]-NH2)
Problem: Would you let me know which has the greater half-life value, a or b ? Response format: the label of the selected entry.
Result: b
